# Protocol Summary: Pharmacokinetic studies in rat (i.v.)
# Type: in vivo
# Particulars: male, Sprague-Dawley, rat, plasma, iv, 1.33 mg/kg, I-17 1.33 mg/kg i.v., rat plasma, 0.25 h, individual rats R07-R09; read-out: Plasma concentration
Measured Endpoint: concentration at 0.25 h
Your answer should be a number followed by the unit of measure.

Q. Fill in: concentration at 0.25 h of CSc1ccc2[nH]cc(CCN(C(C)C)C(C)C)c2c1 [Compound I-17] is ___
A. 139 ng/mL

* * *

# Protocol Summary: Pharmacokinetic studies in rat (i.v.)
# Assay type: in vivo
# Particulars: male, Sprague-Dawley, rat, plasma, iv, 1.2 mg/kg, I-12 1.2 mg/kg i.v., rat plasma, 1 h, Mean ± SD; read-out: Plasma concentration
# Description: Animals: Male Sprague-Dawley rats (˜225-350 g) from Charles River Labs were acclimatized for a minimum of 5 days prior to start of study procedures. Body weights were recorded on the day of dosing. Any abnormalities were documented including presence/absence of wet dog shakes/back muscle contractions (WDS/BMC). Dosing: Formulations were administered intravenously (i.v.) via the tail vein using a 25 G needle connected to a 1 cc syringe. […]
Measured Endpoint: concentration at 1 h (ng/mL)
// note: answer is a bare numeric in ng/mL

Q. Fill in: concentration at 1 h of CCN(CC)CCc1c[nH]c2ccc(SC)cc12 is ___
A. 31.2
